These data points were gathered from ChEMBL document CHEMBL2331485.

target: mTORC1 (Homo sapiens, UniProt P42345); assay: Inhibition of mTORC1 in human NCI-PC3 cells assessed as inhibition of p70S6K phosphorylation
Reported Property: IC50 (nM)
The response must be a number in nM with no trailing unit.

# lookup: mTORC1 (Homo sapiens, UniProt P42345) IC50, key = CCNC(=O)Nc1ccc(-c2nc3c(c(N4CCOC[C@@H]4C)n2)C[C@@H]2CC[C@H]3N2C2COC2)cc1
2.7

---

system: Plasma; assay: Plasma concentration in NCR nude mouse xenografted with human PC3 cells at 50 to 100 mg/kg, po measured at 6 to 10 hrs; type: ADME, organism-based, PC-3; design: route oral; settings: in vivo
Reported Property: concentration

Please list concentration recorded for the compound CCNC(=O)Nc1ccc(-c2nc3c(c(N4CCOC[C@@H]4C)n2)[C@H]2CC[C@@H](C3)N2C)cc1
> 1000 nM

---

Listed here: items and their measured fraction unbound at 4 h, 5 µM.
test: Plasma protein binding in rat at 5 uM after 4 hrs by rapid equilibrium dialysis; type: ADME, cell-free; conditions: read-out: PPB (converted)
// response body must contain only the number

{"Structure Smiles": "CCNC(=O)Nc1ccc(-c2nc3c(c(N4CCOC[C@@H]4C)n2)[C@@H]2CC[C@H](C3)N2C)cc1", "Reported Property": "fraction unbound at 4 h, 5 µM", "Numeric Value": 0.8}
{"Structure Smiles": "CCNC(=O)Nc1ccc(-c2nc3c(c(N4CCOC[C@@H]4C)n2)C[C@@H]2CC[C@H]3N2C)cc1", "Reported Property": "fraction unbound at 4 h, 5 µM", "Numeric Value": 0.32}

Please list fraction unbound at 4 h, 5 µM recorded for the molecule CCNC(=O)Nc1ccc(-c2nc3c(c(N4CCOC[C@@H]4C)n2)C[C@@H]2CC[C@H]3N2C(=O)COC)cc1
0.21

---

experiment: Kinetic solubility of the compound; format: physicochemical

{"Structure Smiles": "CCNC(=O)Nc1ccc(-c2nc3c(c(N4CCOC[C@@H]4C)n2)C[C@H]2CC[C@@H]3N2C)cc1", "Kinetic_solubility": "soluble"}
{"Structure Smiles": "CCNC(=O)Nc1ccc(-c2nc3c(c(N4CCOC[C@@H]4C)n2)C[C@@H]2CC[C@H]3N2C(=O)COC)cc1", "Kinetic_solubility": "soluble"}
{"Structure Smiles": "CCNC(=O)Nc1ccc(-c2nc3c(c(N4CCOC[C@@H]4C)n2)C[C@@H]2CC[C@H]3N2C2COC2)cc1", "Kinetic_solubility": "soluble"}

---

biological target: Cytochrome P450 3A4 (Homo sapiens, UniProt P08684); assay: Time dependent inhibition of human CYP3A4 preincubated for 30 mins in presence of NADPH
Sequence (P08684 whole entry): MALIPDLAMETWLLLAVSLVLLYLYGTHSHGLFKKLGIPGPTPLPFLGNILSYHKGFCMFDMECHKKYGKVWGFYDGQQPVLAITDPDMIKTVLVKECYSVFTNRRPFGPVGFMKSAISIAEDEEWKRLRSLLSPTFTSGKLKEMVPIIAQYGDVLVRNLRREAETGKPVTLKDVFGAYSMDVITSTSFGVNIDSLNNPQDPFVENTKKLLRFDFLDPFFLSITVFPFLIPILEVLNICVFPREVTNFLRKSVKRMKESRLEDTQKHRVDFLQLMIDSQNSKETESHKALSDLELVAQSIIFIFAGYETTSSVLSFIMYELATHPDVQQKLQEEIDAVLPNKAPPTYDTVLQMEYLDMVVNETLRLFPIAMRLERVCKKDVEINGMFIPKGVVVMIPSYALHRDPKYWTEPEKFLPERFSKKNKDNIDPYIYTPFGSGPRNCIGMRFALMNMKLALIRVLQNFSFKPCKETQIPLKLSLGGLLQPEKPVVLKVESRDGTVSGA
Reported Property: IC50 (µM)
The response must be a number in µM with no trailing unit.

These recorded examples may help you get a feel for the data.
{"Structure Smiles": "CCNC(=O)Nc1ccc(-c2nc3c(c(N4CCOC[C@@H]4C)n2)[C@H]2CC[C@@H](C3)N2C(C)=O)cc1", "System Tested": "Cytochrome P450 3A4 (Homo sapiens, UniProt P08684)", "IC50 / µM": 7.3}
{"Structure Smiles": "CCNC(=O)Nc1ccc(-c2nc3c(c(N4CCOC[C@@H]4C)n2)[C@H]2CC[C@@H](C3)N2S(C)(=O)=O)cc1", "System Tested": "Cytochrome P450 3A4 (Homo sapiens, UniProt P08684)", "IC50 / µM": 5}
{"Structure Smiles": "CCNC(=O)Nc1ccc(-c2nc3c(c(N4CCOC[C@@H]4C)n2)C[C@@H]2CC[C@H]3N2S(C)(=O)=O)cc1", "System Tested": "Cytochrome P450 3A4 (Homo sapiens, UniProt P08684)", "IC50 / µM": 5}

Turning now to a further record.
Please list IC50 recorded for the compound CCNC(=O)Nc1ccc(-c2nc3c(c(N4CCOC[C@@H]4C)n2)CN(C2COC2)CC3)cc1
2.5

---

assay: Volume of distribution at steady state in mouse at 1 mg/kg, iv; format: ADME, organism-based; design: dose 1 mg/kg, route intravenous; details: in vivo, read-out: Vdss
Simple rule here: Vd less than 0.7 L/kg is yes, otherwise no.

Consider the following illustrative entries.
{"Structure Smiles": "CCNC(=O)Nc1ccc(-c2nc3c(c(N4CCOC[C@@H]4C)n2)C[C@@H]2CC[C@H]3N2C(=O)COC)cc1", "Classification": "yes"}
{"Structure Smiles": "CCNC(=O)Nc1ccc(-c2nc3c(c(N4CCOC[C@@H]4C)n2)[C@@H]2CC[C@H](C3)N2C)cc1", "Classification": "no"}
{"Structure Smiles": "CCNC(=O)Nc1ccc(-c2nc3c(c(N4CCOC[C@@H]4C)n2)[C@H]2CC[C@@H](C3)N2C)cc1", "Classification": "no"}
{"Structure Smiles": "CCNC(=O)Nc1ccc(-c2nc3c(c(N4CCOC[C@@H]4C)n2)C[C@@H]2CC[C@H]3N2C(C)=O)cc1", "Classification": "yes"}
{"Structure Smiles": "CCNC(=O)Nc1ccc(-c2nc3c(c(N4CCOC[C@@H]4C)n2)C[C@@H]2CC[C@H]3N2S(C)(=O)=O)cc1", "Classification": "no"}
{"Structure Smiles": "CCNC(=O)Nc1ccc(-c2nc3c(c(N4CCOC[C@@H]4C)n2)C[C@@H]2CC[C@H]3N2C2COC2)cc1", "Classification": "yes"}

Shifting focus to the compound that follows.
For CCNC(=O)Nc1ccc(-c2nc3c(c(N4CCOC[C@@H]4C)n2)C[C@@H]2CC[C@H]3N2C)cc1 , is the recorded Vd below the cut-off of 0.7 L/kg?
no

---

assay: Clearance in mouse liver microsomes; type: ADME, Microsome
Simple rule here: CLhep predicted less than 50 mL/min/kg is True, otherwise False.

{"Structure Smiles": "CCNC(=O)Nc1ccc(-c2nc3c(c(N4CCOC[C@@H]4C)n2)[C@H]2CC[C@@H](C3)N2C)cc1", "Classification": "True"}
{"Structure Smiles": "CCNC(=O)Nc1ccc(-c2nc3c(c(N4CCOC[C@@H]4C)n2)C[C@@H]2CC[C@H]3N2C(=O)COC)cc1", "Classification": "False"}
{"Structure Smiles": "CCNC(=O)Nc1ccc(-c2nc3c(c(N4CCOC[C@@H]4C)n2)C[C@@H]2CC[C@H]3N2C(C)=O)cc1", "Classification": "True"}

Shifting focus to the molecule that follows.
For CCNC(=O)Nc1ccc(-c2nc3c(c(N4CCOC[C@@H]4C)n2)[C@@H]2CC[C@H](C3)N2C)cc1 , is the recorded CLhep predicted below the cut-off of 50 mL/min/kg?
False

---

assay: Cytotoxicity against human MCF7 neo/Her2 cells after 3 days by CellTiter-Glo assay; settings: MCF7, 72 h
Reported Property: pEC50
In textbook form, pEC50 equals minus log to base ten of the concentration in mol/L.

Please list pEC50 recorded for the compound CCNC(=O)Nc1ccc(-c2nc3c(c(N4CCOC[C@@H]4C)n2)[C@@H]2CC[C@H](C3)N2C)cc1
6.80

Please list pEC50 recorded for the compound CCNC(=O)Nc1ccc(-c2nc3c(c(N4CCOC[C@@H]4C)n2)C[C@@H]2CC[C@H]3N2C(C)=O)cc1
7.21

Please list pEC50 recorded for the compound CCNC(=O)Nc1ccc(-c2nc3c(c(N4CCOC[C@@H]4C)n2)C[C@@H]2CC[C@H]3N2C)cc1
7.08

Please list pEC50 recorded for the compound CCNC(=O)Nc1ccc(-c2nc3c(c(N4CCOC[C@@H]4C)n2)C[C@@H]2CC[C@H]3N2C2COC2)cc1
7.12

---

system: PC-3; test: Cytotoxicity against human PC3 cells after 4 days by CellTiter-Glo assay; conditions: PC-3, 96 h
Reported Property: pEC50
In textbook form, pEC50 equals minus log to base ten of the concentration in mol/L.

These recorded examples may help you get a feel for the data.
{"Structure Smiles": "CCNC(=O)Nc1ccc(-c2nc3c(c(N4CCOC[C@@H]4C)n2)C[C@@H]2CC[C@H]3N2S(C)(=O)=O)cc1", "pEC50": 7.60}
{"Structure Smiles": "CCNC(=O)Nc1ccc(-c2nc3c(c(N4CCOC[C@@H]4C)n2)C[C@@H]2CC[C@H]3N2C(C)=O)cc1", "pEC50": 7.80}
{"Structure Smiles": "CCNC(=O)Nc1ccc(-c2nc3c(c(N4CCOC[C@@H]4C)n2)[C@@H]2CC[C@H](C3)N2C2COC2)cc1", "pEC50": 6.24}
{"Structure Smiles": "CCNC(=O)Nc1ccc(-c2nc3c(c(N4CCOC[C@@H]4C)n2)[C@H]2CC[C@@H](C3)N2S(C)(=O)=O)cc1", "pEC50": 6.59}
{"Structure Smiles": "CCNC(=O)Nc1ccc(-c2nc3c(c(N4CCOC[C@@H]4C)n2)C[C@@H]2CC[C@H]3N2C2COC2)cc1", "pEC50": 7.54}

# lookup: PC-3 pEC50, key = CCNC(=O)Nc1ccc(-c2nc3c(c(N4CCOC[C@@H]4C)n2)[C@H]2CC[C@@H](C3)N2C(C)=O)cc1
6.74

# lookup: PC-3 pEC50, key = CCNC(=O)Nc1ccc(-c2nc3c(c(N4CCOC[C@@H]4C)n2)[C@H]2CC[C@@H](C3)N2C2COC2)cc1
6.74

# lookup: PC-3 pEC50, key = CCNC(=O)Nc1ccc(-c2nc3c(c(N4CCOC[C@@H]4C)n2)CN(C2COC2)CC3)cc1
6.10
